biological target: HDAC1 enzyme (recombinant GST-HDAC1) (Homo sapiens (Human)); experiment: In vitro HDAC assay for determination of IC50 values (BIOMOL fluorescent-based HDAC activity assay); conditions: Flur de lys substrate, 2 h room temperature, read-out: IC50 (HDAC 1)
Sequence (Q13547 whole entry): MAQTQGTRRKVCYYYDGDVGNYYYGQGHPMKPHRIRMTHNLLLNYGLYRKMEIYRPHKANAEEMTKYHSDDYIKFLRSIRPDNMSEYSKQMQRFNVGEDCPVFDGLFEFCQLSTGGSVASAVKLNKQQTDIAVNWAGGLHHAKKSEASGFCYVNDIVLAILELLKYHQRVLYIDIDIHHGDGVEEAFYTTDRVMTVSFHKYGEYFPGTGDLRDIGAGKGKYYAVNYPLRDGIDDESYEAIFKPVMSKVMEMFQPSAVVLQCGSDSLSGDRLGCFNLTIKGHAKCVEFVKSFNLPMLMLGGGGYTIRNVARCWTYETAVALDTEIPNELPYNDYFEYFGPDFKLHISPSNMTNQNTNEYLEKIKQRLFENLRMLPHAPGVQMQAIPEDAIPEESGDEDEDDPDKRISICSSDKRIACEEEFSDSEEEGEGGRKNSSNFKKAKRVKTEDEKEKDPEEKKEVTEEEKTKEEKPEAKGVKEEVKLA
Field: label. Allowed values: 1.0 (IC50 < 200 nM) or 0.0 (IC50 >= 200 nM).

>>> category("O=C(/C=C/c1ccc2nc(CCc3ccccc3)c(Nc3ccc(N4CCCCC4)cc3)n2c1)NO")
0.0
>>> category("CCCCCN(CC)Cc1c(C(C)(C)C)nc2cc(/C=C/C(=O)NO)ccn12")
1.0
>>> category("CCNCc1c(C(C)(C)C)nc2cc(/C=C/C(=O)NO)ccn12")
1.0
>>> category("CCCc1nc2cc(/C=C/C(=O)NO)ccn2c1CN(CC)CCC(C)(C)C")
1.0
>>> category("CCN(CC)CCNCc1c(C(C)(C)C)nc2cc(/C=C/C(=O)NO)ccn12")
0.0

Could you please tell me whether IC50 recorded for `CCN(CC)Cc1c(-c2ccccc2)nc2ccc(/C=C/C(=O)NO)cn12` is less than 200 nM? 0.0

What would you report for `CCc1nc2cc(/C=C/C(=O)NO)ccn2c1CN(CC)CCC(C)C` ? 1.0

What would you report for `CCCCCc1nc2ccc(/C=C/C(=O)NO)cn2c1NCCOC` ? 0.0

What would you report for `COCCNc1c(CCc2ccccc2)nc2ccc(/C=C/C(=O)NO)cn12` ? 0.0

What would you report for CCCCc1nc2cc(/C=C/C(=O)NO)ccn2c1CN(CC)CC(C)CCC (centres unmarked) ? 1.0

What would you report for `CCN(CCC(C)(C)C)Cc1c(C(C)(C)C)nc2cc(/C=C/C(=O)NO)ccn12` ? 1.0

What would you report for `CCCCNCc1c(-c2ccccc2)nc2cc(/C=C/C(=O)NO)ccn12` ? 1.0
